Cited source: patent US20060115475A1

- target.or.system: T1, Human hexa-histidine-TLR3 (human, UniProt O15455 24-703, limits assumed)
- T1 construct: Captured by anti-His antibody on a CM5 chip; also called TLR3 (captured on the chip surface); not shown: hexa-histidine tag
- assay.protocol: Biacore 3000, hexa-histidine-TLR3 captured on anti-His antibody, mAb in solution, 25 C, 1:1 model
pKd: −log10 of the molar value.
measurement.kind: pKd

[[record]]
binder = "murine anti-hTLR3 antagonist mAb 1068 (antibody, mouse IgG1, V domains shown, also called C1068; mAb C1068) VH: QVQLQQPGAELVQPGTSVRLSCKASGYIFTTYWIHWVKQRPGQGLEWIGEINPNNGRINYNEKFKTKATLTVDKSSSTAYMQLSSLTSEDSAVYYCTRVGVMITTFPYWGQGTLVTVSA VL: DIQMTQSPASLSASVGETVTITCRASGNIHNYLAWYQQKQGKSPQLLVYNAKTLADGVPSRFSGSESGTQYSLKINSLQPEDFGSYYCQHFWSTPFTFGSGTKLELK"
readout_value = 9.50

[[record]]
binder = "human-adapted anti-TLR3 mAb HV5/LV1 (antibody, human IgG4, V domains shown, Human IgG4 (S228P, F234A, L235A), kappa; not shown: human kappa light chain constant region) VH: QVQLVQSGAEVKKPGASVKVSCKASGYTFTTYWIHWVRQATGQGLEWMGEINPNNGRINYNEKFKTRVTMTRNTSISTAYMELSSLRSEDTAVYYCARVGVMITTFPYWGQGTLVTVSS VL: DIQMTQSPSSLSASVGDRVTITCRASGNIHNYLAWYQQKPGKAPKLLIYNAKTLADGVPSRFSGSGSGTDFTLTISSLQPEDFATYYCQHFWSTPFTFGQGTKLEIK"
readout_value = 9.19

[[record]]
binder = "human-adapted anti-TLR3 mAb HV1/LV1 (antibody, human IgG4, V domains shown, Human IgG4 (S228P, F234A, L235A), kappa; not shown: human kappa light chain constant region) VH: QVQLVQSGAEVKKPGASVKVSCKASGYTFTTYWIHWVRQAPGQRLEWMGEINPNNGRINYNEKFKTRVTITRDTSASTAYMELSSLRSEDTAVYYCARVGVMITTFPYWGQGTLVTVSS VL: DIQMTQSPSSLSASVGDRVTITCRASGNIHNYLAWYQQKPGKAPKLLIYNAKTLADGVPSRFSGSGSGTDFTLTISSLQPEDFATYYCQHFWSTPFTFGQGTKLEIK"
readout_value = 8.77

[[record]]
binder = "human-adapted anti-TLR3 mAb HV5/LV5 (antibody, human IgG4, V domains shown, Human IgG4 (S228P, F234A, L235A), kappa; not shown: human kappa light chain constant region) VH: QVQLVQSGAEVKKPGASVKVSCKASGYTFTTYWIHWVRQATGQGLEWMGEINPNNGRINYNEKFKTRVTMTRNTSISTAYMELSSLRSEDTAVYYCARVGVMITTFPYWGQGTLVTVSS VL: DIQMTQSPSSLSASVGDRVTITCRASGNIHNYLAWYQQKPGKVPKLLIYNAKTLADGVPSRFSGSGSGTDFTLTISSLQPEDVATYYCQHFWSTPFTFGGGTKVEIK"
readout_value = 9.15

[[record]]
binder = "human-adapted anti-TLR3 mAb HV4/LV3 (antibody, human IgG4, V domains shown, Human IgG4 (S228P, F234A, L235A), kappa; not shown: human kappa light chain constant region) VH: QVQLVQSGAEVKKPGASVKVSCKASGYTFTTYWIHWVRQAPGQGLEWMGEINPNNGRINYNEKFKTRVTMTRDTSISTAYMELSRLRSDDTAVYYCARVGVMITTFPYWGQGTLVTVSS VL: DIQMTQSPSSLSASVGDRVTITCRASGNIHNYLAWYQQKPGKAPKRLIYNAKTLADGVPSRFSGSGSGTEFTLTISSLQPEDFATYYCQHFWSTPFTFGQGTKLEIK"
readout_value = 8.47

[[record]]
binder = "human-adapted anti-TLR3 mAb HV1/LV7 (antibody, human IgG4, V domains shown, Human IgG4 (S228P, F234A, L235A), kappa; not shown: human kappa light chain constant region) VH: QVQLVQSGAEVKKPGASVKVSCKASGYTFTTYWIHWVRQAPGQRLEWMGEINPNNGRINYNEKFKTRVTITRDTSASTAYMELSSLRSEDTAVYYCARVGVMITTFPYWGQGTLVTVSS VL: DIQMTQSPSSLSASVGDRVTITCRASGNIHNYLAWFQQKPGKAPKSLIYNAKTLADGVPSRFSGSGSGTDFTLTISSLQPEDFATYYCQHFWSTPFTFGQGTKLEIK"
readout_value = 7.05

